The following compounds are listed with their measured pIC50 values.
- Tested system: Human ATX protein (Homo sapiens)
- Construct: made in house
- Assay procedure: ATX biochemical assay (FRET, FS-3 substrate)
- Experimental context: FRET assay, FS-3 2 μM, ATX 1.0 μg/mL, 30 minutes preincubation, 2 hours reaction at room temperature; read-out: IC50
pIC50: −log10 of the molar value. Structures can show the parent of a compound that is named as a salt.

Please review the entries below; each comes with its answer.
| Compound | Tested system | Value kind | Endpoint value |
| --- | --- | --- | --- |
| O=C(CC1CC(N2CCOCC2)C1)N1CCc2c(C(F)(F)F)nn(Cc3ccc(F)cc3)c2C1 (stereo not shown) [Example 22-5, TFA salt] | Human ATX protein (Homo sapiens) | pIC50 | ≥ 7.00 |
| CCOC(=O)C1CCCN(CC(=O)N2CCc3c(C(F)(F)F)nn(Cc4ccc(F)cc4)c3C2)C1 (stereo not shown) [Example 12-5] | Human ATX protein (Homo sapiens) | pIC50 | ≥ 7.00 |
| O=C(O)CC1CCN(CC(=O)N2CCc3c(C(F)(F)F)nn(Cc4ccc(F)cc4)c3C2)C1 (stereo not shown) [Example 13-25, TFA salt] | Human ATX protein (Homo sapiens) | pIC50 | ≥ 7.00 |

Then this compound:
Lab book: pIC50 of CNC12CCC(C(=O)N3CCc4c(C(F)(F)F)nn(Cc5ccc(F)cc5)c4C3)(CC1)CC2 [Example 9-22, TFA salt] noted as 6.30 to 6.60
